MEASURED_ATTRIBUTE: melting point

INSERT INTO assay_data (molecule, result) VALUES
  ('COC(=O)CCCCCCCC(=O)Nc1cncnc1 [5c]', '78.6 to 80.2 °C');

Challenge: For COC(=O)CCCCCCCC(=O)Nc1ccccn1 [4a] , write its melting point.
Response given: 59 to 60 °C

Challenge: Indicate its recorded melting point; the molecule in question is COC(=O)CCCCCCCC(=O)Nc1ccncc1 [4c]
Response given: 83 to 85 °C

Challenge: Kindly indicate its recorded melting point. Item: COC(=O)CCCCCCCC(=O)Nc1cccnc1 [4b]
Response given: 75.5 to 77.7 °C

Challenge: Give reported melting point value for COC(=O)CCCCCCCC(=O)n1nnc2ccccc21 [8b]
Response given: 55.5 to 57.2 °C

Challenge: Provide melting point value for the following molecule: COC(=O)CCCCCCCC(=O)Nc1ccncn1 [5b]
Response given: 92 to 94.2 °C

Value source: paper PMC7024557
